List of yeast fitness values.
B1: tRNA (parent)
chain: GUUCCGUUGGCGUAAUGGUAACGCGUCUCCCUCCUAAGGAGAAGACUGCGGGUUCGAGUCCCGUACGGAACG

- Variants of: B1
- measurement_notes: yeast fitness relative to wild type (ratio to wild type); higher = fitter; tRNA-Arg(CCU), competitive growth, 37 C, YPD
Variants at the floor of the assay were thinned out.

Example results:
GUUCCGUUGGGGCAAUGGUAACGCGUCUCCCUCCUAUGGAGAAGACUGCGGGUUCGAGUCCCGUACGGAACG has a reported yeast fitness of ≤ 0.5

GUUCCGUUGGCGUAAUGGUAACGCGUCUCCCUCCUAAGAAGAAGACUGCGGGUUCCAGUCCCGUAAGGAACG has a reported yeast fitness of ≤ 0.5

GUUCCGUUGGCGUAGUGGUAACGCGUCUCCCUCCUAAGGAAAUGACUGCCGGUUCGAGUCCCGUACGGAACG has a reported yeast fitness of ≤ 0.5

***
GUUCCGUUGGUGUAAUGGUAGCGCGUCUCCCUCCUAUGGGAAAGACUGCGGGUUCGAGUCCCGUACGGAACG has a reported yeast fitness of ≤ 0.5

Data credit: the RNAGym collection of RNA variant scans (doi:10.1126/science.aae0568)
